Measured TGI, listed per entry for reference.
# Tested on: NCI-H23 lung
# method.notes: NCI tumour cell line growth inhibition, 48 h

Please review the following examples before continuing.
molecule	TGI
COC(=O)C(Cl)=C1CC1	> 100 µM
O=c1oc2ccc3ccccc3c2cc1-c1nc2ccccc2o1	> 63.3 µM
Cc1[nH]c(=O)nc(NCCNCCO)c1C(=O)Nc1c2ccccc2nc2ccccc12	> 100 µM
O=C(CCc1cccc(O)c1)NCCc1ccc(O)cc1	> 100 µM

Given item CCN(CC)CCCNc1nc2ccccc2c2[nH]c3ccc(OC)cc3c12 , the value recorded as its TGI is 2.93 µM

Entry O=[n+]1c2ccccc2n([O-])c2cc(Br)ccc21 — recorded TGI = 49.6 µM

The molecule listed as O=C1C=C(NCCc2cc(Br)c(O)c(Br)c2)C(=O)c2ncccc21 has a reported TGI of 1.66 µM

* * *

# System: OVCAR-4 ovarian
# method.notes: NCI tumour cell line growth inhibition, 48 h; in the data active = GI50 below about 0.43 µM; inactive = the rest
Lab note: assign the record to one of Y (active), N (inactive)

Reference set (4 entries):
1) CCOC(=O)c1sc(Nc2ccc(Cl)cc2)nc1C N
2) CCCCCCCC[N+](C)(CCCCCCCC)CCCCCCCC Y
3) CCn1cnc2c(Nc3cccc(Cl)c3)nc(N[C@@H]3CCCC[C@@H]3N)nc21 N
4) C=C(C)[C@@H]1CC[C@]2(C)[C@H](CC[C@@H]3[C@H]4[C@H]5OC[C@@]4(CCC5(C)C)CC[C@]32C)[C@@]1(C)CCCN N

Next, consider the following compound.
IN: Please share the test call associated with CC(=O)N=c1ccc2nc3c(cc(N)c4ccccc43)oc-2c1 .
OUT: Y

* * *

# Test system: SR leukemia
# method.notes: NCI tumour cell line growth inhibition, 48 h
Please enter satisfied where TGI is greater than or equal to 40 µM, and not satisfied where it is lower.

compound	tested.system	classification
O=C(/C=C/c1ccco1)CC(=O)/C=C/c1ccco1	SR leukemia	not satisfied

IN: Kindly determine if TGI recorded for NS(=O)(=O)c1ccc(CNc2nc(-c3cccs3)nc3ccc(I)cc23)cc1 is above or exactly 40 µM.
OUT: satisfied

IN: Item CC(C)(C)c1ccc(C(O)c2ccc(C(C)(C)C)cc2)cc1 with TGI of 40 µM or above?
OUT: satisfied

IN: Entry Cn1c2ccccc2c(=NNc2ccccc2C(=O)O)c2ccccc21 : is its TGI no less than 40 µM?
OUT: satisfied

IN: Is TGI at least 40 µM? Consider CC(C)OP(=O)(OC(C)C)C(=Nc1ccccc1)NNc1ccc([N+](=O)[O-])cc1
OUT: satisfied

IN: Please check the record Cc1n[nH]c(=O)n1/N=C/c1c[nH]c2ccccc12 and state if its TGI is at or above 40 µM.
OUT: satisfied

IN: Assess whether reported TGI for N/N=C1/CCCc2nonc21 sits at 40 µM or higher.
OUT: satisfied

IN: Has N/N=C1\CCCc2c1no[n+]2[O-] a recorded TGI greater than or equal to 40 µM?
OUT: satisfied

IN: Determine whether measured TGI meets or exceeds 40 µM for Cc1ccc(S(=O)(=O)N2CCc3ccc(O)c4c3C2Cc2cc(Cl)ccc2-4)cc1 (stereo unspecified)
OUT: not satisfied

IN: Quick check: does C=C1c2nc3ccccc3n2C=C(c2ccccc2)N1c1ccccc1 have TGI greater than or equal to 40 µM?
OUT: satisfied

IN: Does the reported TGI for COc1ccc(-c2nc(-c3nc4ccc(OC)cc4[nH]3)cc3c2[nH]c2ccccc23)cc1 fall at or above the 40 µM mark?
OUT: satisfied

* * *

# Test system: MOLT-4 leukemia
# method.notes: NCI tumour cell line growth inhibition, 48 h
parameter: GI50

1) COC1=CC(c2ccc[nH]2)=N/C1=C\c1[nH]c(C)c(C(=O)CCCCC(=O)Nc2ccccc2)c1C 0.522 µM
2) C=C1C(=O)O[C@H]2[C@H]1CC/C(COC(=O)NCc1c[nH]c3ccc(Cl)cc13)=C\CC[C@@]1(C)O[C@@H]21 1.34 µM
3) COc1ccc([N+](=O)[O-])c(S(=O)(=O)c2ccc(Cl)cc2)n1 3.59 µM

The record that follows has no GI50 shown yet.
Recorded result, CO[C@@H]1[C@H](OC(=O)NC(=O)CCl)CC[C@]2(CO2)[C@H]1[C@@]1(C)O[C@@H]1CC=C(C)C , GI50: 3.31 µM

* * *

Each entry below carries its recorded TGI.
# System: HL-60(TB) leukemia
# method.notes: NCI tumour cell line growth inhibition, 48 h

Record COc1ccc2[nH]c3c(c2c1)COc1ccccc1C3=O , field TGI: > 100 µM

* * *

# System: 786-0 renal
# method.notes: NCI tumour cell line growth inhibition, 48 h
parameter: TGI

The cases that follow already have their TGI on record.
compound	obs.value
CCCc1nc2c(C)cc(-c3nc4ccccc4n3C)cc2n1Cc1ccc(-c2ccccc2C(=O)O)cc1	> 100 µM
N.N.NCCCCN.O=C([O-])C1(C(=O)[O-])CCC1.O=C([O-])C1(C(=O)[O-])CCC1.[Pt+4].[Pt+4]	> 100 µM
CC1C=CC(=O)C(n2cc(F)c(=O)[nH]c2=O)O1 (stereo unspecified)	31.3 µM

In plain terms, CN(C)CCCc1c[nH]c2ccccc12 has a documented TGI of > 100 µM

For this compound ( CC(C)NC(=O)OCc1c(COC(=O)NC(C)C)n(C)c2c1ccc1ccccc12 ), measured TGI is 2.5 µM

Input CSc1nc2sc3cc(Cl)ccc3n2c(=N)c1C#N . Output TGI: 24 µM

// field: TGI; key: N#Cc1ccnc(N2C(=O)CC[C@H]2C(=O)N(c2cncc(F)c2)[C@H](C(=O)NC2CC(F)(F)C2)c2ccccc2Cl)c1 ; value = > 100 µM

Entry CCOC(=O)c1sc(=S)c2c(C(=O)OCC)c(C(=O)OCC)sc2c1C(=O)OCC ; TGI = 44.5 µM

The reported value for NC(=S)N/N=C1/C(=O)N(c2ccc(Cl)cc2Cl)C(=O)C(=O)C1c1nc2ccccc2s1 (stereo unspecified) in terms of TGI is > 100 µM

For this compound ( O=[N+]([O-])c1cc(-[n+]2cc([O-])on2)ccc1F ), measured TGI is 24 µM

Query COc1cc2c(c3c1c(=O)c1ccccc1n3C)C=CC1(CCCCC1)O2 yields TGI of > 10 µM

TGI reported for this compound N#CC1=C(N)OC(c2ccc([N+](=O)[O-])cc2)C1(C#N)C#N (stereo unspecified) : 25 µM

Record summary for COc1ccc2c(c1)N=C1CSC(c3cc([N+](=O)[O-])ccc3Cl)N1C2 (stereo unspecified) : reported TGI = 89.3 µM

get_value(item= NCCNC(=S)S , readout=TGI) returns > 100 µM

Per the records, this compound ( COc1cc(-n2cc(-c3ccc(Cl)cc3)[nH]c2=O)cc(OC)c1OC ) has TGI equal to 35.3 µM

The recorded TGI for entry CCC(=C/[C@H](C)C/C=C/C(C)=C/[C@@H](C)C(=O)[C@@H](C)[C@H](O)[C@@H](C)CC)/C=C/[C@H]1OC(=O)C=C[C@H]1C equals 0.642 µM

* * *

# System: HCT-116 colon
# method.notes: NCI tumour cell line growth inhibition, 48 h; in the data active = GI50 below about 0.43 µM; inactive = the rest
# output must be one of active, inactive

Examples with answers:
compound	classification
COc1ccc2c(c1)CC[C@@H]1[C@@H]2CC[C@]2(C)C(c3ccco3)=C(C=O)C[C@@H]12	inactive
C[C@@H]1C=C2C(=O)O[C@@H]3CC[C@H](C1)[C@]23O	inactive
Nc1ccc(/C=N/Nc2ccnc3c(N)cccc23)c2cccnc12	active
C[C@H]1[C@H](C)CC[C@]2(C(=O)O)CC[C@]3(C)C(=CC[C@@H]4[C@@]5(C)C/C(=C/c6ccco6)C(=O)C(C)(C)[C@@H]5CC[C@]43C)[C@H]12	inactive
NS(=O)(=O)c1ccc(CCN=C=S)cc1	inactive
COc1cc2c3c(n(CCCNCCCNCCCn4c5c(c6ccccc6c4=O)C(=O)c4ccccc4-5)c(=O)c2cc1OC)-c1cc2c(cc1C3=O)OCO2	active

IN: Short answer needed: outcome of this test for COc1cc(-c2cc(-c3nc4ccc(Cl)cc4[nH]3)[nH]n2)cc(OC)c1OC ?
OUT: inactive

IN: Fill in: this test's call for CC(=O)N=c1ccc2nc3c(cc(N)c4ccccc43)oc-2c1 is ___
OUT: active

IN: For this compound, state the assay outcome: COc1ccc2c(c1)CCC1C2CC[C@]2(C)/C(=N/OC(=O)Cc3ccccc3)CCC12 (some centres not stated)
OUT: inactive

IN: Hello, I am checking results. What call was entered for CCCN(CCC)c1ccc(/C=N/NC(=O)c2cccnc2)c(Cl)c1 ?
OUT: inactive

IN: Hi team, can someone confirm the assay call for COC1=CC(c2ccc[nH]2)=N/C1=C\c1ccc[nH]1 ?
OUT: active

IN: Which outcome was entered for the compound CCCc1nc2c(C)cc(-c3nc4ccccc4n3C)cc2n1Cc1ccc(-c2ccccc2C(=O)O)cc1 in this test?
OUT: inactive
